Ref: patent US20250145628A1

Biological target: human CB1 receptor (Homo sapiens, UniProt P21554)
Construct: expressed in transfected cells; host or cells: HEK293
Sequence (P21554 whole entry): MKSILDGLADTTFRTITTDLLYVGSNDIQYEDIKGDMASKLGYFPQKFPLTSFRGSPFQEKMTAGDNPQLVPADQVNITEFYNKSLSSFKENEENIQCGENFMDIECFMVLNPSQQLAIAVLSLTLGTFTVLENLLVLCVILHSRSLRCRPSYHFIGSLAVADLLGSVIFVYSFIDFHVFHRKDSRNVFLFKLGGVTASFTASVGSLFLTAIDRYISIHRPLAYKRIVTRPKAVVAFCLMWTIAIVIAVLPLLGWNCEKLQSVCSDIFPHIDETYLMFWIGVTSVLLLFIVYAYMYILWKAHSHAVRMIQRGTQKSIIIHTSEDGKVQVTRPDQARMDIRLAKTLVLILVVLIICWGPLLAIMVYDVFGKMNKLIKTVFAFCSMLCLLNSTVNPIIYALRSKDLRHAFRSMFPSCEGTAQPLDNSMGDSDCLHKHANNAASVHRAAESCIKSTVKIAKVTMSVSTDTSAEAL
Assay: bioSensAll GAPL-Gi2 BRET biosensor assay (antagonism of CP-55,940)
Assay type: cell-based
Details: HEK293 cells transfected with hCB1 and GAPL-Gi2 biosensor, EC75 of CP-55,940 (0.1 nM), overnight incubation, read-out: CB1 wt Gi2 IC50
Please go through the items and note down their log10 of IC50.
Scale type: logarithmic (base 10). Underlying IC50 unit: nM.

See these solved cases before continuing.
Molecule	Property Label	Readout Number
CCNC(=O)CNc1cc(N2CCC(C)(C(N)=O)CC2)n2nc(-c3ccccc3Cl)c(-c3ccc(Cl)cc3)c2n1	log10 of IC50	1.53
CN(CC1COC(C)(C)OC1)c1cc(N2CCC(C)(C(N)=O)CC2)n2nc(-c3ccccc3Cl)c(-c3ccc(Cl)cc3)c2n1	log10 of IC50	3.88
CCNC(=O)CN(C)c1cc(N2CC[C@H](CC(N)=O)C2)n2nc(-c3ccccc3Cl)c(-c3ccc(Cl)cc3)c2n1	log10 of IC50	2.18
CN(CCC(N)=O)c1cc(N2CC(CC(N)=O)C2)n2nc(-c3ccccc3Cl)c(-c3ccc(Cl)cc3)c2n1	log10 of IC50	1.16
CC1(C(N)=O)CCN(c2cc(N3CC[C@@H](O)C3)nc3c(-c4ccc(Cl)cc4)c(-c4ccccc4Cl)nn23)CC1	log10 of IC50	0.11

List log10 of IC50 for every entry below, keeping the order given.
1. CC(C)(O)COc1cc(N2CCC(C)(C(N)=O)CC2)n2nc(-c3ccccc3Cl)c(-c3ccc(Cl)cc3)c2n1
2. CC1(C(N)=O)CCN(c2cc(N3CC[C@@H]3CC(=O)O)nc3c(-c4ccc(Cl)cc4)c(-c4ccccc4Cl)nn23)CC1
3. CN(CCO)c1cc(N2CCC(C)(C(N)=O)CC2)n2nc(-c3ccccc3Cl)c(-c3ccc(Cl)cc3)c2n1
4. CCOC1(C(N)=O)CCN(c2cc(OCC(C)(C)O)nc3c(-c4ccc(Cl)cc4)c(-c4ccccc4Cl)nn23)CC1

1: 0.10; 2: 3.17; 3: -0.59; 4: 0.22

List log10 of IC50 for every entry below, keeping the order given.
1. CC(C)(O)COc1cc(N2CC(C)(C(N)=O)C2)n2nc(-c3ccc(C#N)nc3)c(-c3ccc(Cl)cc3)c2n1
2. CNC(=O)CCN(C)c1cc(N2CCC(C)(C(N)=O)CC2)n2nc(-c3ccccc3Cl)c(-c3ccc(Cl)cc3)c2n1

0.18
0.39

List log10 of IC50 for every entry below, keeping the order given.
1. C[C@@H](CO)Oc1cc(-c2ccc(C(F)(F)F)nc2)n2nc(-c3ccccc3Cl)c(-c3ccc(Cl)cc3)c2n1 [Compound 71(S)]
2. CC(C)(O)COc1cc(N2CCC(C)(O)CC2)n2nc(-c3ccccc3Cl)c(-c3ccc(Cl)cc3)c2n1
3. CCOC1(C(N)=O)CCN(c2cc(N(C)CC(C)(C)O)nc3c(-c4ccc(Cl)cc4)c(-c4ccccc4Cl)nn23)CC1
4. CCNC(=O)CN(C)c1cc(N2CCC(C)(C(N)=O)CC2)n2nc(-c3ccccc3Cl)c(-c3ccc(Cl)cc3)c2n1 [Compound 46]
5. COc1ccccc1-c1nn2c(-c3cccc(C#N)c3)cc(N3CCC[C@H]3CO)nc2c1-c1ccc(Cl)cc1

0.14
0.40
0.59
0.58
0.25
